Test: Apparent permeability across apical to basolateral side in human Caco2 cells
Type: ADME, cell-based
Details: Caco-2
property: Papp A→B

Query string: Which Papp A→B reading was recorded for the compound O=C(N[C@@H]1CC[C@@]2(O)[C@H]3Cc4ccc(O)c5c4[C@@]2(CCN3CC2CC2)[C@H]1O5)c1ccncc1 ?
Result string: < 10 nm/s
